These data points were gathered from the supplement of paper PMC11061612.

System: BICR78 (Oral Cavity Carcinoma);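 further: after 72 h of two-drug dosing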
experimentDescription: Bliss excess, mean over the matrix (fraction); higher = more synergy
experimentalEndpoint: Bliss excess
Number only, no unit.

Completed entries (count: 2):
{"molecule": "O=C(c1cc(Cc2n[nH]c(=O)c3ccccc23)ccc1F)N1CCN(C(=O)C2CC2)CC1 [Olaparib] + CC1(C)CCC(CN2CCN(c3ccc(C(=O)NS(=O)(=O)c4ccc(NCC5CCOCC5)c([N+](=O)[O-])c4)c(Oc4cnc5[nH]ccc5c4)c3)CC2)=C(c2ccc(Cl)cc2)C1 [Venetoclax] (first compound max 10 µM, 7x7, partner max 1 µM)", "systemUnderTest": "BICR78 (Oral Cavity Carcinoma)", "experimentalEndpoint": "Bliss excess", "readoutNumber": -0.0733}
{"molecule": "CN(CCO)CC[C@H](CSc1ccccc1)Nc1ccc(S(=O)(=O)NC(=O)c2ccc(N3CCC([C@@H](O)c4ccccc4-c4ccc(Cl)cc4)CC3)cc2)cc1S(=O)(=O)C(F)(F)F [AZD4320] + CCN(CCO)CCCOc1ccc2c(Nc3cc(CC(=O)Nc4cccc(F)c4)[nH]n3)ncnc2c1 [AZD2811] (first compound max 1 µM, 7x7, partner max 1 µM)", "systemUnderTest": "BICR78 (Oral Cavity Carcinoma)", "experimentalEndpoint": "Bliss excess", "readoutNumber": -0.0008}

Now examine the next entry.
Query :: Form field: reported Bliss excess of Cc1c2c(nn1C)CSCc1cc(n(C)n1)CSc1cc(c3ccccc3c1)OCCCc1c(C(=O)O)n(C)c3c-2c(Cl)ccc13 [AZD5991] + C1CN(CCC1(C(=O)N[C@@H](CCO)C2=CC=C(C=C2)Cl)N)C3=NC=NC4=C3C=CN4 [Capivasertib] (first compound max 1 µM, 7x7, partner max 3 µM)
Result :: -0.0198
